Measured values drawn from paper PMC10614203 for this set.

Target: rat CB2R (Rattus norvegicus, UniProt Q9QZN9)
Construct: one spleen from a female SPRD rat expressing high levels of the receptor in the leukocytes; autoradiography also described with male F433 rats)
Sequence (Q9QZN9 whole entry): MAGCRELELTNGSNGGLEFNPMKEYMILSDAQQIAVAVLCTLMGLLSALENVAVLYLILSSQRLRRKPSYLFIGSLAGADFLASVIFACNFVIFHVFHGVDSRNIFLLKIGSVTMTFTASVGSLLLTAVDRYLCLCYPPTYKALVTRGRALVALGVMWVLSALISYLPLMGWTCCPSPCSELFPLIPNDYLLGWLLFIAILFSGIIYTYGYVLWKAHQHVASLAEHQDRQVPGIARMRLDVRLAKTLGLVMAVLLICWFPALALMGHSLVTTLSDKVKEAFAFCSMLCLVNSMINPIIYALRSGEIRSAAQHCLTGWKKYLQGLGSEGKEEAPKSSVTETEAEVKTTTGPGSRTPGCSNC
Assay: Homologous competition binding of [18F]RM365 / RM365 on rat spleen homogenate
Settings: rat spleen homogenate; read-out: KD for the rCB2R
experimental-readout: Kd

The value of Kd recorded for CC1(C)Cc2ccc(C#N)cc2[C@@H]1NC(=O)c1cc2cc([18F])ccc2[nH]1 [[^18F]RM365] when tested on rat CB2R (Rattus norvegicus, UniProt Q9QZN9) reads > 10 µM

----------
Molecular target: hCB2R (Homo sapiens, UniProt P34972)
Construct: host or cells: CHO cells, stably transfected
Sequence (P34972 whole entry): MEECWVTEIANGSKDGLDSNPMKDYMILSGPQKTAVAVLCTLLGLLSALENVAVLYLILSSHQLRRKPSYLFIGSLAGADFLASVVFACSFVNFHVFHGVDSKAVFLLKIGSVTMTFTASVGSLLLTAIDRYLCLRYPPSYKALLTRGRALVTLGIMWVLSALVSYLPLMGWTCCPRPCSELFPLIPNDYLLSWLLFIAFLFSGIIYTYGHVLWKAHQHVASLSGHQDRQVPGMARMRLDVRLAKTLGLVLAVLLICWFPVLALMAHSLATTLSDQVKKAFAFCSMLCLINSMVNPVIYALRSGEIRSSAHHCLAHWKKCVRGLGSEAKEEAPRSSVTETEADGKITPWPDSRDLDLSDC
Assay: Competitive radioligand binding assay, displacement of [3H]WIN55212-2 from homogenates of hCB2R-CHO cells
Conditions: hCB2R, discussion of Table 1

>  <compound>
CC1(C)Cc2ccc(C#N)cc2[C@@H]1NC(=O)c1nc2cc(F)ccc2[nH]1 [Compound 19G]

>  <CB2R binding affinity, in words>
high CB2R affinity

$$$$
>  <compound>
CC1(C)Cc2ccc(C#N)cc2[C@@H]1NC(=O)c1cc2cc(F)ccc2s1 [Compound 19H]

>  <CB2R binding affinity, in words>
high CB2R affinity

$$$$

----------
Target: hCB2R (Homo sapiens, UniProt P34972)
experimental-readout: IC50 (nM)
The reply should contain only the number, in nM.

The value of IC50 recorded for CC1(C)Cc2ccc(C#N)cc2[C@@H]1NC(=O)c1cc2cc([18F])ccc2[nH]1 [[^18F]RM365] when tested on hCB2R (Homo sapiens, UniProt P34972) reads 2.4

----------
Target: hCB2R (Homo sapiens, UniProt P34972)
Construct: host or cells: CHO cells, stably transfected
Assay: Competitive radioligand binding assay, displacement of [3H]WIN55212-2 from homogenates of hCB2R-CHO cells
Details: hCB2R-CHO homogenates, displacement of [3H]WIN55.2212-2; read-out: CB2R Ki
Ki strictly under 20 nM means met; at 20 nM or over means not met.

>  <compound>
CC12CCC(C1)C(C)(C)C2NC(=O)c1cc2cc(F)ccc2[nH]1 (stereo not shown) [Compound 21D]

>  <assigned-label>
not met

$$$$
>  <compound>
CC1(C)Cc2ccc(C#N)cc2[C@@H]1NC(=O)c1cc2c(F)cccc2[nH]1 [Compound 19A]

>  <assigned-label>
met

$$$$
>  <compound>
CC1(C)Cc2ccc(OCCCF)cc2[C@@H]1NC(=O)c1cc2cc(F)ccc2[nH]1 [Compound 21B]

>  <assigned-label>
not met

$$$$
>  <compound>
CC1(C)Cc2ccc(C#N)cc2[C@@H]1NC(=O)c1cc2cc(OCCCF)ccc2[nH]1 [Compound 19E]

>  <assigned-label>
met

$$$$
>  <compound>
Cc1c(C(=O)N[C@H]2c3cc(C#N)ccc3CC2(C)C)[nH]c2ccc(F)cc12 [Compound 19F]

>  <assigned-label>
not met

$$$$

Okay, now this compound:
Query string: Lab note: confirm whether the reported Ki for this compound is below 20 nM, equality not counting. compound: CC1(C)Cc2ccc(C#N)cc2[C@@H]1NC(=O)c1cc2ccc(F)cc2[nH]1 [Compound 19B]
Result string: met

----------
Target: hCB1R (Homo sapiens)
Construct: host or cells: CHO cells, stably transfected
Sequence (P21554 whole entry): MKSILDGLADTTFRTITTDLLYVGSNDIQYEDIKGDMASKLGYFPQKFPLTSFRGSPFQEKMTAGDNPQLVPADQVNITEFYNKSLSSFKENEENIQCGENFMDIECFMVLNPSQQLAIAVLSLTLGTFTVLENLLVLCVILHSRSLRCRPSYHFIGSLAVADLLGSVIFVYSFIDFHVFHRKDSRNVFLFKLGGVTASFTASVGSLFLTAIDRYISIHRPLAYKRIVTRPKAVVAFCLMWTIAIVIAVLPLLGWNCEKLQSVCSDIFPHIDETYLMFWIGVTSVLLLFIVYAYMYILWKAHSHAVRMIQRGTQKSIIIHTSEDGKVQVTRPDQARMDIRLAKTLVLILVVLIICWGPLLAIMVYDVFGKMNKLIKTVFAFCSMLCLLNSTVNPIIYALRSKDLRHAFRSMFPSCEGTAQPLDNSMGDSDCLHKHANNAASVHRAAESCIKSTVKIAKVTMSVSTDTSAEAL
Assay: Radioligand displacement assay, [3H]SR141716A from homogenates of hCB1R-CHO cells
Type: binding
Settings: hCB1R-CHO homogenates, displacement of [3H]SR141716A; read-out: CB1R Ki
pKi: −log10 of the molar value.
Readings of pKi for the listed compounds

Examples with answers:
>  <compound>
CC1(C)Cc2ccc(OCCCF)cc2[C@@H]1NC(=O)c1cc2cc(F)ccc2[nH]1 [Compound 21B]

>  <experimental-readout>
pKi

>  <test-result>
< 6.00

$$$$
>  <compound>
CC1(C)Cc2ccc(C#N)cc2[C@@H]1NC(=O)c1cc2ccc(F)cc2[nH]1 [Compound 19B]

>  <experimental-readout>
pKi

>  <test-result>
< 6.00

$$$$
>  <compound>
CC1(C)Cc2ccc(C#N)cc2[C@@H]1NC(=O)c1cc2cc(OCCF)ccc2[nH]1 [Compound 19D]

>  <experimental-readout>
pKi

>  <test-result>
< 6.00

$$$$
>  <compound>
CC1(C)Cc2ccc(C#N)cc2[C@@H]1NC(=O)c1cc2cc(OCCCF)ccc2[nH]1 [Compound 19E]

>  <experimental-readout>
pKi

>  <test-result>
< 7.00

$$$$
>  <compound>
CC1(C)Cc2ccc(C#N)cc2[C@@H]1NC(=O)c1cc2cc(F)ccc2s1 [Compound 19H]

>  <experimental-readout>
pKi

>  <test-result>
< 7.00

$$$$
>  <compound>
CC1(C)Cc2ccc(C#N)cc2[C@@H]1NC(=O)c1cc2c(F)cccc2[nH]1 [Compound 19A]

>  <experimental-readout>
pKi

>  <test-result>
< 6.00

$$$$
>  <compound>
CC12CCC(C1)C(C)(C)C2NC(=O)c1cc2cc(F)ccc2[nH]1 (stereo not shown) [Compound 21D]

>  <experimental-readout>
pKi

>  <test-result>
< 6.00

$$$$
>  <compound>
CC1(C)Cc2ccc(C#N)cc2C1NC(=O)c1cc2cc(F)ccc2[nH]1 (stereo not drawn) [Compound (+)-6]

>  <experimental-readout>
pKi

>  <test-result>
< 6.00

$$$$
>  <compound>
CC1(C)Cc2ccc(OCCF)cc2[C@@H]1NC(=O)c1cc2cc(F)ccc2[nH]1 [Compound 21A]

>  <experimental-readout>
pKi

>  <test-result>
< 7.00

$$$$

Please examine the following record next.
Input CC1(C)Cc2ccc(C(N)=O)cc2[C@@H]1NC(=O)c1cc2cc(F)ccc2[nH]1 [Compound 21C] . Output pKi: < 6.00

----------
Target: hCB2R (Homo sapiens, UniProt P34972)
Construct: host or cells: CHO cells, stably transfected
Experiment: Competitive radioligand binding assay, displacement of [3H]WIN55212-2 from homogenates of hCB2R-CHO cells
Details: hCB2R-CHO homogenates, displacement of [3H]WIN55.2212-2; read-out: CB2R Ki
Readings of Ki for the listed molecules
The reply should contain only the number, in nM.

>  <molecule>
CC1(C)Cc2ccc(C#N)cc2[C@@H]1NC(=O)c1nc2cc(F)ccc2[nH]1 [Compound 19G]

>  <units-label>
nM

>  <Ki>
7.18

$$$$
>  <molecule>
CC1(C)Cc2ccc(C#N)cc2[C@@H]1NC(=O)c1cc2cc(F)ccc2s1 [Compound 19H]

>  <units-label>
nM

>  <Ki>
6.98

$$$$
>  <molecule>
CC1(C)Cc2ccc(OCCF)cc2[C@@H]1NC(=O)c1cc2cc(F)ccc2[nH]1 [Compound 21A]

>  <units-label>
nM

>  <Ki>
50

$$$$
>  <molecule>
CC1(C)Cc2ccc(C#N)cc2C1NC(=O)c1cc2cc(F)ccc2[nH]1 (racemic) [Compound (±)-6]

>  <units-label>
nM

>  <Ki>
3

$$$$

Please examine the following record next.
Input CC1(C)Cc2ccc(C#N)cc2[C@@H]1NC(=O)c1cc2cc(OCCF)ccc2[nH]1 [Compound 19D] . Output Ki: 29.9
